Sourced from patent EP2389922A1

# Test system: SIRT1
# ASSAY_REMARKS: SIRT1 assay: stimulation of SIRT1 expression in NHDF cells (immunofluorescence)
# Assay type: cell-based, human
# RUN_PARAMETERS: concentration 30 µM; NHDF cells treated 48 h; mean values of at least 2 independent tests
VALUE_TYPE: Stimulation of SIRT1 expression

1. CCC(C)NC(=O)OC1CCCC(C)C1C (centres unmarked)    52%
2. CCCCCCNC(=O)O[C@@H]1C[C@H](C)CC[C@H]1C(C)C    66%
3. CCCCNC(=O)OC1CCCCC1C(C)C (centres unmarked)    14%
4. CC(C)[C@@H]1CC[C@@H](C)C[C@H]1OC(=O)Nc1ccccc1    117%
5. CCCCNC(=O)O[C@H]1C[C@@H](C)CC[C@@H]1C(C)C    47%
6. CCCCNC(=O)OC1C(C)CCC(C)C1C (centres unmarked)    24%
7. CCCCNC(=O)O[C@@H]1C[C@H](C)CC[C@H]1C(C)C    29%
8. CCc1ccc(NC(=O)OC2CC(C)CC(C)C2)cc1 (centres unmarked)    66%
